# measured on: T1, KV (N-terminal acetylation)
# T1 construct: de novo designed 28-residue coiled coil peptide, four heptads (gabcdef); also called KV peptide; source: synthetic peptide (solid phase, Fmoc), purified by reverse phase HPLC
# T1 peptide: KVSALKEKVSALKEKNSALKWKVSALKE
# protocol text: circular dichroism, thermal denaturation; thermal denaturation at different peptide monomer concentrations, Tm related to Kd; Kd at 20 °C; 10 mM phosphate buffer pH 7
# condition summary: both partners purified

>  <binder>
Ac-EIAALEKEIAALEKENAALEWEIAALEK-NH2 (de novo designed 28-residue coiled coil peptide, four heptads (gabcdef); also called EI peptide; source: synthetic peptide (solid phase, Fmoc), purified by reverse phase HPLC) [EI]

>  <Kd, nM>
72

$$$$
>  <binder>
Ac-EVSALEKEVSALEKENSALEWEVSALEK-NH2 (de novo designed 28-residue coiled coil peptide, four heptads (gabcdef); also called EV peptide; source: synthetic peptide (solid phase, Fmoc), purified by reverse phase HPLC) [EV]

>  <Kd, nM>
1400

$$$$
